# target: HLA-A*0301 (Homo sapiens)
# Construct: Soluble MHC was dissolved in PBS containing 0.5 mg/ml bovine γ-globulin; made in house
# Format: binding
In this section we review reported FP binding score, percentage inhibition of tracer peptide binding, 24h values for a set of substances.
Express it in %; write the number only.

substance: [AHA][NLE]RGSVAHK [I53]
unitSpec: %
testValue: 91
//
substance: R[NVA]VLSAFDKR [R59]
unitSpec: %
testValue: 68
//
substance: RM[4-FPHE]LSAFDER [R55]
unitSpec: %
testValue: 65
//
substance: ILRGSV[2-AOC]HK [I65]
unitSpec: %
testValue: 94
//
substance: S[NVA][4-FPHE]FGGFTK [S95]
unitSpec: %
testValue: 93
//
substance: I[AHA][CpALA]GSVAHK [I83]
unitSpec: %
testValue: 89
//
substance: I[AHA][PRG]GSVAHK [I84]
unitSpec: %
testValue: 89

Task item: Item RMVLSAF[2-AOC]ER [R38] : provide FP binding score, percentage inhibition of tracer peptide binding, 24h
Reply: 75
